The values you see were collected from ChEMBL document CHEMBL4513135.

System: Staphylococcus aureus
conditionContext: Concentration 32 ug.mL-1; ASSAY_TEST Inhibition of Bacterial Growth; detection method Absorption (OD600); MEDIA CAMHB; plate type 384well; NBS; CORNING #3640; time 18 hr
Description: Antibacterial activity against Staphylococcus aureus MRSA ATCC 43300 (CO-ADD:GP_020); MIC in CAMBH media, using NBS plates, by OD(600)
Results with a measured potency or affinity are listed apart.
metric: Inhibition
Record the result as number plus unit.

{"compound": "N#CCC(=O)c1ccccc1", "Inhibition": "30.68%"}
{"compound": "C#CCN1CCc2nc3ncccc3c(N)c2C1.Cl", "Inhibition": "20.08%"}
{"compound": "CCOC(=O)C1=C(C)NC(=O)CC1c1ccccc1 (centres undefined)", "Inhibition": "39.69%"}

Now, please, on to the next compound.
Name the recorded Inhibition of C#CCN(C)Cc1cc2cc(OC(=O)N(C)C)ccc2n1C , assay system Staphylococcus aureus.
-2.15%
